Known bioavailability of a selection of compounds
- EXPERIMENT DESCRIPTION: Bioavailability in dog at 1.0 mg/kg, po
- Format: ADME, organism-based, Canis lupus familiaris
- RUN PARAMETERS: in vivo
Record the value in %, omitting the unit from your answer.

Past entries and their recorded results:
- COMPOUND: "O=C(Nc1cc(-c2cccc(F)c2F)cn(CC(F)(F)F)c1=O)N1CCC(n2c(=O)[nH]c3ncccc32)CC1"
  ENDPOINT UNIT: "%"
  VALUE OBSERVED: 65
- COMPOUND: "Cn1cc(-c2ccc(O)cc2)cc(NC(=O)N2CCC(n3c(=O)[nH]c4ncccc43)CC2)c1=O"
  ENDPOINT UNIT: "%"
  VALUE OBSERVED: 3
- COMPOUND: "O=C(Nc1cc(-c2cccnc2)cn(CC(F)(F)F)c1=O)N1CCC(n2c(=O)[nH]c3ncccc32)CC1"
  ENDPOINT UNIT: "%"
  VALUE OBSERVED: 56
- COMPOUND: "O=C(Nc1cc(-c2ccccc2)cn(CC(F)(F)F)c1=O)N1CCC(n2c(=O)[nH]c3ncccc32)CC1"
  ENDPOINT UNIT: "%"
  VALUE OBSERVED: 58

Turning now to a further compound:
q: Quick one: bioavailability of Cn1cc(C2C=CN=N2)cc(NC(=O)N2CCC(n3c(=O)[nH]c4ncccc43)CC2)c1=O (stereo not given) ?
a: 6
